# test.protocol: Metabolic stability in mouse microsomes after 20 mins
# Assay type: ADME, Microsome
# measurement.context: read-out: Stability
measurement.name: remaining at 20 min (%)
Lab book: enter the figure in %, no units written.

Item: "Cc1cc(Oc2cccc(Cn3ccnc3)c2)cc(C)c1Cl" | remaining at 20 min: 29
